Target: T1, human melanocortin 1 receptor (human, UniProt Q01726 1-317)
T1 construct: whole, on cells; also called hMC1R; MC1R
T1 sequence (Q01726 whole entry): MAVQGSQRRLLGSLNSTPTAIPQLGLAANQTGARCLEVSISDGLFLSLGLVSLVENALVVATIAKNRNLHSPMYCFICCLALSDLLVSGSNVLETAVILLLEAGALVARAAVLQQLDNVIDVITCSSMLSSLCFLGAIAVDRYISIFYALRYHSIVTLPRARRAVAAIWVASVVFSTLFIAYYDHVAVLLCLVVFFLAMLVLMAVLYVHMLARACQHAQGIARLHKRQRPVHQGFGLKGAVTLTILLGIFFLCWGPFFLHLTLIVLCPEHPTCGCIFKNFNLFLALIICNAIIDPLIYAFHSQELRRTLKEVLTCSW
Assay: competition binding vs Eu-NDP-a-MSH, time-resolved fluorescence, A375/hMC1R cells
pKi: −log10 of the molar value. Square brackets hold non-standard residues; d marks the D form. Side chains are listed from the residue outwards. * marks the point of attachment. IR800CW = near-infrared dye IRDye800CW (maleimide); Cy5 = Cy5 fluorescent dye (maleimide); Butanoyl(4-Ph) = O=C(CCCc1ccccc1)*; Mpa = O=C(O)CCS
OUTCOME_MEASURE: pKi

[
  {
    "BINDER": "{Butanoyl(4-Ph)}-H[dF]RWGK([Mpa-IR800CW])-NH2 (Near-infrared dye conjugate of the MC1R ligand; also called MC1RL-800; MC1RL-800 probe) [4-phenylbutyryl-His-DPhe-Arg-Trp-Gly-Lys(Mpr-IR800CW)-NH2]",
    "VALUE": 9.40
  },
  {
    "BINDER": "{Butanoyl(4-Ph)}-H[dF]RWGK([Mpa-Cy5])-NH2 (also called Cy5 conjugated ligand; MC1R-635 probe) [MC1R-Cy5 probe]",
    "VALUE": 9.52
  }
]

Data credit: patent US20160175384A1
